Data credit: ChEMBL document CHEMBL3988442

system: Chromo domain-containing protein 1 (Saccharomyces cerevisiae (strain ATCC 204508 / S288c) (Baker's yeast))
assay-notes: ScCHD-1 Enzyme Inhibition Assay
Type: functional
Design: scale not given: in the data most compounds retested in dose-response had high values
experimental-conditions: 30 µM
measured-property: Percent Effect (%)
Report only the number, with the unit % understood.

Reported Percent Effect for O=C(COCC1CC1)N1CCCC(n2cccn2)C1 (centres undefined) : what is it?
-22.9

Now the compound CNC(=O)c1cc2c(nc1N(C)C)CCN(S(=O)(=O)CC(C)C)CC2
-2.31

Now try O=C(CC1CC1)N1CCC2(CC1)CN(c1ncccn1)CCO2 .
-7.95

For Cc1ncsc1C(=O)Nc1cccc(OCC(F)F)n1 then?
-0.476

Cool, now COc1cccc(CC2CN(C3CCN(C(C)=O)CC3)CCO2)c1 (centres undefined)
1.6

What do we get for Cc1cc(CN2CCN(C(=O)CCc3cccc(F)c3F)CC2)on1 ?
0.403

Input COc1ccc(C2=CCN(C(=O)C3CC(=O)N(C4CC4)C3)CC2)cc1 (centres undefined)
-1.27

Follow-up item: Cc1nnc(N2CC[C@H]3C[C@H](C(=O)N4CCOCC4)O[C@H]3C2)s1
1.53

Query O=C(c1cncc(Br)c1)N1CCC(O)(Cn2ccc3ccncc32)CC1 next
-12.2

Record: CCc1csc(CCNC(=O)C2CC(=O)N(C(C)C)C2)n1 (centres undefined)
-1.5

Thanks! And O=C(NCC1CCN(C(=O)c2ccoc2)CC1)c1ccccc1Br ?
-4.05

Then c1sc(C2CCCC2)nc1CN1CCn2c(nnc2C2CC2)C1 ?
-4.21

Repeat with NC(=O)c1ccc(OCC(=O)N2CCCC(n3cccn3)C2)cc1 (centres undefined)
-7.55

What about CCc1nnc(CNCC2CCCN2c2cccnn2)o1 (centres undefined) ?
-4.05

Now the same for NC(=O)NCC1CCCCN1C(=O)c1cccc(C(F)(F)F)c1 (centres undefined)
-9.06

Subsequent entry: CCOCC1CN(Cc2cccc(C#N)c2)Cc2nccn2C1 (centres undefined)
-1.98

// query: CN(C)CCO[C@H]1CN(Cc2cccc(C#N)c2)[C@@H]2COC[C@H]12
-5.99

Consider next the compound Cn1nc(C2CCCN(C(=O)Cc3ccsc3)C2)c2nccnc21 (centres undefined) in the same way.
-13.9

Subsequent entry: CC(C(N)=O)N(C)CCCc1cc(-c2ccccc2)no1 (centres undefined)
-3.63

Also, COc1ccc(NC(C)C(=O)N2CCN(Cc3ccccc3)CC2)cn1 (centres undefined) please.
-0.618

What would you report for CCOC(=O)CNC(=O)N1CCN(c2ncccn2)CC1 ?
-4.38

Can you check COc1ncccc1C(=O)N1CCCC(c2cc(C)[nH]n2)C1 (centres undefined) next?
1.58

Now consider COc1ccnc(N2CCN(C(=O)CCc3nccs3)CC2)n1 and answer again.
-3.79

Check Cn1cc(-c2cnc(N3CCOCC3)nc2)cc1C(=O)NCCO too.
-7.59
